Reference source for all entries: patent US20080261994A1

target: aggrecanase-1 (Homo sapiens, UniProt O75173); test: Aggrecanase-1 inhibitory action (Particle Assay, GAG release from aggrecan-containing polyacrylamide particles); type: biochemical; conditions: aggrecanase-1 inhibitory action; read-out: IC50 AG1 (Experimental Example 1)
For each entry below, report its IC50 value.

Sample CC(C)C1(c2ccccc2)CC1(NS(=O)(=O)c1ccc(-c2ccc(Cl)cc2)s1)C(=O)O (centres unmarked) — what was its IC50?
< 1 µM

Here is the next compound: O=C(O)[C@]1(NS(=O)(=O)c2ccc(-c3ccc(Cl)cc3)s2)C[C@@H]1c1cccc([N+](=O)[O-])c1
< 0.1 µM

Here is the next compound: O=C(O)C1(NS(=O)(=O)N2CCN(c3cccc(Cl)c3)CC2)CC1c1ccccc1 (centres unmarked)
≥ 1 µM

Here is the next compound: NC(=O)COc1cccc(C2CC2(NS(=O)(=O)c2ccc(-c3ccc(Cl)cc3)cc2)C(=O)O)c1 (centres unmarked)
< 0.1 µM

Here is the next compound: O=C(O)C1(NS(=O)(=O)c2ccc(-c3ccc(Cl)cc3)cc2)CC1c1ccccc1Oc1ccccc1 (centres unmarked)
< 1 µM

Here is the next compound: O=C(O)C1(NS(=O)(=O)c2ccc(-c3ccc(Cl)cc3)cc2)CC1c1cccc(Oc2ccccc2)c1 (centres unmarked)
< 1 µM

Here is the next compound: O=C(Nc1cccc(C2CC2(NS(=O)(=O)c2ccc(-c3cc(C(F)(F)F)on3)s2)C(=O)O)c1)N1CCOCC1 (centres unmarked)
< 1 µM

Here is the next compound: O=C(O)COc1ccccc1C1CC1(NS(=O)(=O)c1ccc(-c2ccc(Cl)cc2)s1)C(=O)O (centres unmarked)
< 0.1 µM

* * *

molecular target: aggrecanase-1 (Homo sapiens, UniProt O75173); test: Aggrecanase-1 inhibitory action (Particle Assay, GAG release from aggrecan-containing polyacrylamide particles); type: biochemical; settings: Experimental Example 1; read-out: IC50 AG1
pIC50: −log10 of the molar value.
For each entry below, report its pIC50 value.

Sample CC(C)N1CCN(Cc2cccc([C@H]3C[C@@]3(NS(=O)(=O)c3ccc(-c4cc(C(F)(F)F)on4)s3)C(=O)O)c2)CC1 — what was its pIC50?
> 6.00

Here is the next molecule: COCC(=O)NCC1(c2ccccc2)CC1(NS(=O)(=O)c1ccc(-c2ccc(Cl)cc2)s1)C(=O)O (stereo not drawn)
> 6.00

Here is the next molecule: CC1[C@H](c2ccccc2)[C@]1(NS(=O)(=O)c1ccc(-c2cc(C(F)(F)F)on2)s1)C(N)=O (stereo partly drawn)
≤ 6.00

Here is the next molecule: CC1(c2ccccc2F)CC1(NS(=O)(=O)c1ccc(-c2cc(C(F)(F)F)on2)s1)C(=O)O (stereo not drawn)
> 7.00

Here is the next molecule: O=C(NO)C1(NS(=O)(=O)c2ccc(-c3ccc(Cl)cc3)s2)C2Cc3ccccc3C21 (stereo not drawn)
> 6.00

Here is the next molecule: O=C(O)C1(NS(=O)(=O)c2ccc(OCc3ccc(Cl)cc3Cl)cc2)C2CCc3ccccc3C21 (stereo not drawn)
≤ 6.00

* * *

For each entry below, report its IC50 value.
Target: UniProt:O75173
Experiment: Aggrecanase-1 inhibitory action (Particle Assay, GAG release from aggrecan-containing polyacrylamide particles)
Type: biochemical
Details: aggrecanase-1 inhibitory action; read-out: IC50 AG1 (Experimental Example 1)
Description: Particle Assay was used for determination of aggrecanase activity. The enzyme and substrate were diluted with Tris-HCl buffer, and test compounds were diluted with dimethyl sulfoxide (DMSO). […] After incubation, the supernatant was transferred to another plate, and mixed with 1,9-dimethylmethylene blue. The absorbence at 595 nm was measured to quantify the amount of glycosaminoglycan (GAG) released in the reaction supernatant. […]

Sample O=C(O)C1(NS(=O)(=O)c2ccc(-c3cc(C(F)(F)F)on3)s2)CC1(CCCO)c1ccccc1 (stereo not drawn) — what was its IC50?
< 100 nM

Here is the next molecule: O=C(OCCc1ccccc1C1CC1(NS(=O)(=O)c1ccc(-c2cc(C(F)(F)F)on2)s1)C(=O)O)N1CCOCC1 (stereo not drawn)
< 100 nM

Here is the next molecule: CC(C)(CO)NC(=O)c1cccc(C2CC2(NS(=O)(=O)c2ccc(-c3ccc(Cl)cc3)s2)C(=O)O)c1 (stereo not drawn)
< 1000 nM

Here is the next molecule: O=C(O)C1(NS(=O)(=O)N2CC=C(c3ccc(Cl)cc3)CC2)CC1c1ccccc1 (stereo not drawn)
≥ 1000 nM

Here is the next molecule: O=C(O)C1(NS(=O)(=O)c2ccc(-c3ccc(Cl)cc3)cc2)CC1c1cccc(NCc2ncc[nH]2)c1 (stereo not drawn)
< 1000 nM

Here is the next molecule: COC(=O)c1ccccc1C1CC1(NS(=O)(=O)c1ccc(-c2ccc(Cl)cc2)s1)C(=O)O (stereo not drawn)
< 100 nM

Here is the next molecule: O=C(O)C1(NS(=O)(=O)c2ccc(-c3ccc(Cl)cc3)cc2)CC1c1cccc(NCc2ccccc2)c1 (stereo not drawn)
< 1000 nM

Here is the next molecule: O=C(O)C1(NS(=O)(=O)c2ccc(-c3ccc(Cl)cc3)cc2)CC1c1cccc(OCCN2CCOCC2)c1 (stereo not drawn)
< 1000 nM

Here is the next molecule: C[C@]1(c2ccccc2)C[C@@]1(NS(=O)(=O)c1ccc2c(c1)Cc1cc(Br)ccc1-2)C(=O)O
< 100 nM

* * *

target: Recombinant Human MMP-13 (Homo sapiens, UniProt P45452); construct: purchased R&D systems 511-MM; test: MMP-13 inhibitory activity (MMP-13 specific fluorescent substrate with quencher); format: biochemical; conditions: Experimental Example 3; read-out: IC50 MMP13
For each entry below, report its IC50 value.

Sample Cc1nc2cc(N3CCN(S(=O)(=O)N[C@@]4(C(=O)O)C(C)[C@@H]4c4ccccc4)CC3)ccc2s1 (stereo partly shown) — what was its IC50?
≥ 1000 nM

Here is the next compound: CC1CCC(c2ccc(S(=O)(=O)N[C@@]3(C(=O)O)C[C@]3(C)c3ccccc3)cc2)CC1 (stereo partly shown)
≥ 1000 nM

Here is the next compound: C[C@]1(c2ccccc2)C[C@@]1(NS(=O)(=O)c1ccc(-c2ccc(F)c(O)c2)s1)C(=O)O
< 1000 nM

Here is the next compound: CC1[C@H](c2ccccc2)[C@]1(NS(=O)(=O)c1ccc(-c2cn(C)cn2)s1)C(=O)O (stereo partly shown)
< 1000 nM

Here is the next compound: Cc1nnc(N2CCN(S(=O)(=O)N[C@@]3(C(=O)O)C(C)[C@@H]3c3ccccc3)CC2)s1 (stereo partly shown)
≥ 10000 nM

Here is the next compound: CC1[C@H](c2ccccc2)[C@]1(NS(=O)(=O)c1ccc(OCc2ccc(Cl)cc2Cl)cc1)C(=O)O (stereo partly shown)
≥ 1000 nM

Here is the next compound: O=C(O)C1(NS(=O)(=O)c2ccc(-c3ccc(Cl)cc3)s2)CC1(COCCO)c1ccccc1 (stereo not shown)
< 1000 nM

* * *

For each entry below, report its pIC50 value.
biological target: MMP-1 (Homo sapiens); assay: MMP-1 inhibitory action (Type I collagen Activity Measurement kit, FITC-labeled collagen type I); type: biochemical; conditions: MMP-1 inhibitory action, FITC-labeled collagen type I, 37° C. for 3 hr; read-out: IC50 MMP1 (Experimental Example 2)
Sequence (P03956 100-469, species assumed): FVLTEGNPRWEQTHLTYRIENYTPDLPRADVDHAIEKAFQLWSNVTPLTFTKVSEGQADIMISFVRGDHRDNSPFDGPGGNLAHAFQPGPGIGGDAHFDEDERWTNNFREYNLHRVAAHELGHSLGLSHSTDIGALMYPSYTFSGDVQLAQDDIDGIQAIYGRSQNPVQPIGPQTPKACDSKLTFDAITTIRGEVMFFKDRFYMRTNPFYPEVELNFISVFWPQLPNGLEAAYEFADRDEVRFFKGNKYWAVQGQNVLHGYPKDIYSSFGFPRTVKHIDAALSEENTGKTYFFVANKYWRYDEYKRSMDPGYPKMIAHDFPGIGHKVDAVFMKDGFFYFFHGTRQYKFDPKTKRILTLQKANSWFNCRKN
pIC50: −log10 of the molar value.

Sample CN(C)c1cccc(C2CC2(NS(=O)(=O)c2ccc(-c3cc(C(F)(F)F)on3)s2)C(=O)O)c1 (stereo not shown) [Example 2-228] — what was its pIC50?
≤ 6.00

Here is the next compound: O=C(O)[C@]1(NS(=O)(=O)c2ccc(-c3cc(CF)on3)s2)C[C@@H]1c1ccccc1 [Example 2-98]
≤ 6.00

Here is the next compound: CCC1(c2ccccc2)CC1(NS(=O)(=O)c1ccc2c(c1)Cc1cc(F)ccc1-2)C(=O)O (stereo not shown) [Example 2-146]
≤ 5.00

Here is the next compound: O=C(CCc1cccc(C2CC2(NS(=O)(=O)c2ccc(-c3ccc(Cl)cc3)s2)C(=O)O)c1)N1CCC(O)CC1 (stereo not shown) [Example 2-224]
≤ 6.00

Here is the next compound: CC(=O)OCCc1cccc(C2CC2(NS(=O)(=O)c2ccc(-c3ccc(Cl)cc3)s2)C(=O)O)c1 (stereo not shown) [Example 2-108]
≤ 6.00

Here is the next compound: COCc1cccc(C2CC2(NS(=O)(=O)c2ccc(-c3ccc(Cl)cn3)s2)C(=O)O)c1 (stereo not shown) [Example 2-57]
≤ 5.00

Here is the next compound: O=C(O)C1(NS(=O)(=O)c2ccc(-c3ccc(Cl)cc3)cc2)CC1c1cccc(O)c1 (stereo not shown) [Example 1-44]
≤ 6.00

* * *

Target: aggrecanase-1 (Homo sapiens, UniProt O75173)
Sequence (O75173 213-837): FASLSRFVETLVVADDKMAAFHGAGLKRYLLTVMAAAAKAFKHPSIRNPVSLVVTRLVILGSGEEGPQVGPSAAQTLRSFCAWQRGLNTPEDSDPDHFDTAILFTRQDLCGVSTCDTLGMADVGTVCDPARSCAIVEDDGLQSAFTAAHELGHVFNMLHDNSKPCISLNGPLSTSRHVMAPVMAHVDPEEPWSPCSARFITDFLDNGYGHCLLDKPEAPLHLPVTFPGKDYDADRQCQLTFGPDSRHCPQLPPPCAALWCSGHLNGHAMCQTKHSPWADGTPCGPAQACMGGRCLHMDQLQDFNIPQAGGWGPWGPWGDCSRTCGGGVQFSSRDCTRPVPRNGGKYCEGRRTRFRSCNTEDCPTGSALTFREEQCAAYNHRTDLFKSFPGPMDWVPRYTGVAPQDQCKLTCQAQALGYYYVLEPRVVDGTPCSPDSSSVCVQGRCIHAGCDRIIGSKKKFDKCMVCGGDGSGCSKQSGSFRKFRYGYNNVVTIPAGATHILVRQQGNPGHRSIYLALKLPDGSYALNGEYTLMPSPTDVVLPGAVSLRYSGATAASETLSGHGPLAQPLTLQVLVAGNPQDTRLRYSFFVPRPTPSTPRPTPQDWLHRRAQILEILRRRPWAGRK
Test: Aggrecanase-1 inhibitory action (Particle Assay, GAG release from aggrecan-containing polyacrylamide particles)
Type: biochemical
Details: Experimental Example 1; read-out: IC50 AG1
pIC50: −log10 of the molar value.
For each entry below, report its pIC50 value.

Sample CC(C)OC(=O)N1CCN(S(=O)(=O)N[C@@]2(C(=O)O)C[C@@H]2c2ccccc2)CC1 — what was its pIC50?
≤ 6.00

Here is the next molecule: COCC1(c2ccccc2)CC1(NS(=O)(=O)c1ccc(-c2ccc(Cl)cc2)s1)C(=O)O (stereo not drawn)
> 6.00

Here is the next molecule: O=C(CO)NCC1(c2ccccc2)CC1(NS(=O)(=O)c1ccc(-c2ccc(Cl)cc2)s1)C(=O)O (stereo not drawn)
> 6.00

Here is the next molecule: C[C@]1(c2ccccc2)C[C@@]1(NS(=O)(=O)c1ccc(-c2ccc3nnn(O)c3c2)s1)C(=O)O
≤ 6.00

Here is the next molecule: CC1[C@H](c2ccccc2)[C@]1(NS(=O)(=O)N1CCC(OCc2cc(Cl)ccc2Cl)C1)C(=O)O (stereo partly drawn)
≤ 6.00

Here is the next molecule: CCOC(=O)NCC1(c2ccccc2)CC1(NS(=O)(=O)c1ccc(-c2ccc(Cl)cc2)s1)C(=O)O (stereo not drawn)
> 6.00

Here is the next molecule: CC1[C@H](c2ccccc2)[C@]1(NS(=O)(=O)N1Cc2ccc(Cl)cc2C1)C(=O)O (stereo partly drawn)
≤ 6.00

Here is the next molecule: C[C@]1(c2ccc(F)cc2)C[C@@]1(NS(=O)(=O)c1ccc(-c2cc(C(F)(F)F)on2)s1)C(=O)O
> 7.00

Here is the next molecule: O=C(O)C1(NS(=O)(=O)c2ccc(-c3cc(C(F)(F)F)on3)s2)CC1c1cc(CCO)on1 (stereo not drawn) [Example 2-315]
> 6.00

Here is the next molecule: Cc1nc2cc(-c3ccc(S(=O)(=O)N[C@@]4(C(=O)O)C(C)[C@@H]4c4ccccc4)s3)ccc2s1 (stereo partly drawn)
≤ 6.00

Here is the next molecule: CC1[C@H](c2ccccc2)[C@]1(NS(=O)(=O)N1CCCN(c2cccc(Cl)c2)CC1)C(=O)O (stereo partly drawn)
≤ 6.00

Here is the next molecule: C[C@]1(c2ccccc2)C[C@@]1(NS(=O)(=O)c1ccc(-c2ccc(O)c(F)c2)s1)C(=O)O
> 6.00
